meta.source: patent US20070020327A1

Assign binding affinity ratio to each entry below.
# tgt: HLA-A*0201 (human)
# assayText: competition binding to purified HLA, 125I-labelled standard peptide, gel filtration; ratio = IC50 standard / IC50 test peptide
Give bare numbers.

Consider the reported binding affinity ratio for these binders:
- binder: "DTMTKLREL (modifications not checked) [… (PAP, position 230, 9 amino acids)]"
  binding affinity ratio: 0.0002
- binder: "EIASKFSERL (modifications not checked) [… (PSM, position 641, 10 amino acids)]"
  binding affinity ratio: 0.0001
- binder: "DLFGIWSKV (modifications not checked) [… (PAP, position 201, 9 amino acids)]"
  binding affinity ratio: 0.0002
- binder: "EAVGLPSIPV (modifications not checked) [… (PSM, position 285, 10 amino acids)]"
  binding affinity ratio: 0.0002
- binder: "DLVLSIAL (modifications not checked) [DLVLSIAL (Kallikrein, position 3, 8 amino acids)]"
  binding affinity ratio: 0.0001

Bench note: what binding affinity ratio did DMSLLKNRFL (modifications not checked) [… (PSA, position 98, 10 amino acids)] show?
0.0001
